molecular target: human inducible NO-synthase (Homo sapiens, UniProt P35228); assay: Measurement of inducible NO-synthase activity ([3H]arginine conversion); format: biochemical; settings: crude cytosolic fraction containing human inducible NO-synthase; 0.1 μM arginine; 45 to 60 min at 37° C.; read-out: Inhibition of iNOS activity [measured as -logIC50 (mol/l)] (converted)
parameterMeasured: IC50 (nM)
# unit: nM | format: bare number

Please review the following examples before continuing.
cpdSmiles: COc1ccnc(CCc2nc3cc(-c4ccncc4)cnc3[nH]2)c1
parameterMeasured: IC50
readoutValue: 55
--
cpdSmiles: COc1ccnc(CCc2nc3cc(-c4ccco4)cnc3[nH]2)c1
parameterMeasured: IC50
readoutValue: 49

Pending compound:
IC50 lookup needed for COc1ccnc(CCc2nc3cc(-c4cccs4)cnc3[nH]2)c1 , thanks.
24.5

----------
IC50 by entry:
molecular target: human inducible NO-synthase (Homo sapiens); experiment: Measurement of inducible NO-synthase activity ([3H]arginine conversion); assay type: biochemical; conditions: crude cytosolic fraction containing human inducible NO-synthase; 0.1 μM arginine; 45 to 60 min at 37° C.; read-out: Inhibition of iNOS activity [measured as -logIC50 (mol/l)] (converted)

molecule: COc1ccnc(CCc2nc3cc(-c4csc5ccccc45)cnc3[nH]2)c1 [Example 9]
IC50: 30.9 to 245 nM

Entry COc1ccnc(CCc2nc3cc(-c4ccsc4)cnc3[nH]2)c1 [Example 5] , system human inducible NO-synthase (Homo sapiens): what IC50 was measured?
34.7 nM

Return IC50 measured with human inducible NO-synthase (Homo sapiens) given this molecule: COc1ccnc(CCc2nc3cc(-c4nc5cc(C)ccc5[nH]4)cnc3[nH]2)c1 [Example 8]
30.9 to 245 nM

What reported IC50 corresponds to COc1ccnc(CCc2nc3cc(-c4ccc(-c5ccccc5)s4)cnc3[nH]2)c1 [Example 13] on human inducible NO-synthase (Homo sapiens)?
30.9 to 245 nM

Test system human inducible NO-synthase (Homo sapiens); read-out IC50; what value for COc1ccnc(CCc2nc3cc(-c4ccc5[nH]ccc5c4)cnc3[nH]2)c1 [Example 6] ?
49 nM

IC50 of COc1ccnc(CCc2nc3cc(-c4ccoc4)cnc3[nH]2)c1 [Example 2] on human inducible NO-synthase (Homo sapiens)?
45.7 nM

Give recorded IC50 with human inducible NO-synthase (Homo sapiens) for the following molecule: COc1ccnc(CCc2nc3cc(-c4nc5ccccc5[nH]4)cnc3[nH]2)c1 [Example 7]
30.9 to 245 nM

Field: IC50 (human inducible NO-synthase (Homo sapiens)). Entry: COc1ccnc(CCc2nc3cc(-c4cc5ccccc5o4)cnc3[nH]2)c1 [Example 10]
30.9 to 245 nM

----------
We begin with a simple list: items and their reported melting point.

cpdSmiles: COc1ccnc(CCc2nc3cc(-c4ccsc4)cnc3[nH]2)c1
melting point: 154 to 155 °C
//
cpdSmiles: COc1ccnc(CCc2nc3cc(-c4ccncc4)cnc3[nH]2)c1
melting point: 237 to 238 °C

So what's the measured melting point for this one? COc1ccnc(CCc2nc3cc(-c4cccs4)cnc3[nH]2)c1
132 to 133 °C

Give the measured melting point of COc1ccnc(CCc2nc3cc(-c4ccco4)cnc3[nH]2)c1 .
147 to 148 °C

Would you kindly share the measured melting point for COc1ccnc(CCc2nc3cc(-c4ccc5[nH]ccc5c4)cnc3[nH]2)c1 ?
241 to 242 °C

Form field: reported melting point of COc1ccnc(CCc2nc3cc(-c4ccoc4)cnc3[nH]2)c1
193 to 194 °C
